Assay: Half-life is obtained after intravenous dosing of rats.
Format: ADME, organism-based
Conditions: rat, in vivo
PARAMETER: half-life (h)

[
  {
    "COMPOUND": "CCCCCS(=O)(=O)N(CCC)CCN1C[C@H](c2ccc3c(c2)OCO3)[C@@H](C(=O)O)[C@@H]1c1ccc(OC)c(F)c1 (stereo in doubt; 15b)",
    "UNIT SPEC": "h",
    "half-life": 5
  },
  {
    "COMPOUND": "CCCN(CCN1C[C@H](c2ccc3c(c2)OCO3)[C@@H](C(=O)O)[C@@H]1c1ccc(OC)c(F)c1)S(=O)(=O)CCCC(F)(F)F (stereo in doubt; 15e)",
    "UNIT SPEC": "h",
    "half-life": 4.3
  },
  {
    "COMPOUND": "CCCOc1ccc2c(c1)[C@@H](c1ccc(OC)cc1OCCO)[C@H](C(=O)O)[C@H]2c1ccc2c(c1)OCO2",
    "UNIT SPEC": "h",
    "half-life": 2
  },
  {
    "COMPOUND": "CCCc1cc(C(=O)O)ccc1OC(C(=O)NS(=O)(=O)c1ccc(C(C)C)cc1)c1ccc2c(c1)OCO2 [L-754142]",
    "UNIT SPEC": "h",
    "half-life": 2
  },
  {
    "COMPOUND": "CCCCCCS(=O)(=O)N(CCC)CCN1C[C@H](c2ccc3c(c2)OCO3)[C@@H](C(=O)O)[C@@H]1c1ccc(OC)c(F)c1 (stereo in doubt; 15c)",
    "UNIT SPEC": "h",
    "half-life": 3.3
  }
]

(I) CCCN(CCN1C[C@H](c2ccc3c(c2)OCO3)[C@@H](C(=O)O)[C@@H]1c1ccc(OC)c(F)c1)S(=O)(=O)CCCCl (stereo in doubt; 15d)
(II) COc1ccccc1Oc1c(NS(=O)(=O)c2ccc(C(C)(C)C)cc2)nc(-c2ncccn2)nc1OCCO [BOSENTAN]
(III) CCCCS(=O)(=O)N(CCC)CCN1C[C@H](c2ccc3c(c2)OCO3)[C@@H](C(=O)O)[C@@H]1c1ccc(OC)c(F)c1 (stereo in doubt; 15a)
Request: Place the items in sequence of falling half-life. List the labels according to the requested ordering.
Result: I, III, II
(I: 14 h, III: 6.9 h, II: 4 h)

====

Assay: Ratio of endothelin A receptor and endothelin B receptor.
PARAMETER: Ratio

Here are 4 compounds together with their reported answers.
[
  {
    "SMILES REPR": "CCCN(CCN1C[C@H](c2ccc3c(c2)OCO3)[C@@H](C(=O)O)[C@@H]1c1ccc(OC)c(F)c1)S(=O)(=O)CCC(C)C",
    "Ratio": 2.6
  },
  {
    "SMILES REPR": "CCCS(=O)(=O)N(CCN1C[C@H](c2ccc3c(c2)OCO3)[C@@H](C(=O)O)[C@@H]1c1ccc(OC)cc1)CC(C)C",
    "Ratio": 7.7
  },
  {
    "SMILES REPR": "CCCN(CCN1C[C@H](c2ccc3c(c2)OCO3)[C@@H](C(=O)O)[C@@H]1c1ccc(OC)cc1)S(=O)(=O)CCOC",
    "Ratio": 15
  },
  {
    "SMILES REPR": "CCCN(CCN1C[C@H](c2ccc3c(c2)OCO3)[C@@H](C(=O)O)[C@@H]1c1ccc(OC)cc1)S(=O)(=O)CC(C)C",
    "Ratio": 6.6
  }
]

(I) CCCN(CCN1C[C@H](c2ccc3c(c2)OCO3)[C@@H](C(=O)O)[C@@H]1c1ccc(OC)c(F)c1)S(=O)(=O)CC(C)C
(II) CCCCCS(=O)(=O)N(CCC)CCN1C[C@H](c2ccc3c(c2)OCO3)[C@@H](C(=O)O)[C@@H]1c1ccc(OCCC)cc1
(III) CCCCCS(=O)(=O)N(CCC)CCN1C[C@H](c2ccc3c(c2)OCO3)[C@@H](C(=O)O)[C@@H]1c1ccc(OCC)c(F)c1
Request: Place the items in sequence of falling Ratio. List the labels according to the requested ordering.
Result: II, I, III
(II: 13, I: 7.6, III: 2)

====

Test: Ratio of endothelin A receptor and endothelin B receptor.
PARAMETER: Ratio

[
  {
    "MOLECULE": "CCCCCS(=O)(=O)N(CCC)CCN1C[C@H](c2ccc3c(c2)OCO3)[C@@H](C(=O)O)[C@@H]1c1ccc(OCOC)cc1",
    "Ratio": 8.4
  },
  {
    "MOLECULE": "CCCN(CCN1C[C@H](c2ccc3c(c2)OCO3)[C@@H](C(=O)O)[C@@H]1c1ccc(OC)c(F)c1)S(=O)(=O)CCCCl (stereo in doubt; 14e)",
    "Ratio": 2.5
  },
  {
    "MOLECULE": "CCCN(CCN1C[C@H](c2ccc3c(c2)OCO3)[C@@H](C(=O)O)[C@@H]1c1ccc(OC)cc1)S(=O)(=O)CCC",
    "Ratio": 22
  },
  {
    "MOLECULE": "CCCCS(=O)(=O)N(CCC)CCN1C[C@H](c2ccc3c(c2)OCO3)[C@@H](C(=O)O)[C@@H]1c1ccc(OC)cc1",
    "Ratio": 4.7
  },
  {
    "MOLECULE": "CCCCCS(=O)(=O)N(CCC)CCN1C[C@H](c2ccc3c(c2)OCO3)[C@@H](C(=O)O)[C@@H]1c1ccc2c(c1)OCCO2",
    "Ratio": 10
  }
]

(A) CCCCN(CCN1C[C@H](c2ccc3c(c2)OCO3)[C@@H](C(=O)O)[C@@H]1c1ccc(OC)cc1)C(=O)CCC
(B) CCCS(=O)(=O)N(C)CCN1C[C@H](c2ccc3c(c2)OCO3)[C@@H](C(=O)O)[C@@H]1c1ccc(OC)cc1
(C) CCCN(CCN1C[C@H](c2ccc3c(c2)OCO3)[C@@H](C(=O)O)[C@@H]1c1ccc(OC)cc1)S(=O)(=O)c1ccc(Cl)cc1
(D) CCCN(CCN1C[C@H](c2ccc3c(c2)OCO3)[C@@H](C(=O)O)[C@@H]1c1ccc(OC)c(F)c1)S(=O)(=O)Cc1ccccc1
(E) CCCN(CCN1C[C@H](c2ccc3c(c2)OCO3)[C@@H](C(=O)O)[C@@H]1c1ccc(OC)cc1)S(=O)(=O)c1ccccc1
Request: Please produce an ascending ranking of these molecules based on Ratio. List the labels according to the requested ordering.
Result: D, C, B, A, E

====

Molecular target: Endothelin-1 receptor (Rattus norvegicus)
Sequence (P26684 whole entry): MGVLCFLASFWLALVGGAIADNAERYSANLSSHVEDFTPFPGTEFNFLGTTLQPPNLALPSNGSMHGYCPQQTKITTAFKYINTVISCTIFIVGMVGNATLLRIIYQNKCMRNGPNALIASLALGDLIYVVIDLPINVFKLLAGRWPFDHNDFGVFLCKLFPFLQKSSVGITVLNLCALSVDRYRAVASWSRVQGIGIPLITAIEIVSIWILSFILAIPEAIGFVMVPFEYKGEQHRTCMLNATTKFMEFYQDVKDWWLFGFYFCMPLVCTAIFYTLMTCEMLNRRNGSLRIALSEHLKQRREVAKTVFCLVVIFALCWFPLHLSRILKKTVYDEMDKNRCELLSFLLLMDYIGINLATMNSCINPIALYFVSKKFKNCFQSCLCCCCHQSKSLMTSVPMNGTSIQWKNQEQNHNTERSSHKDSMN
Test: Ability to displace endothelin ([125I]ET1) from endothelin A receptor derived from MMQ cells of rodent.
PARAMETER: IC50 (nM)

Here are 2 compounds together with their reported answers.
[
  {
    "COMPOUND": "CCCCCS(=O)(=O)N(CCC)CCN1C[C@H](c2ccc3c(c2)OCO3)[C@@H](C(=O)O)[C@@H]1c1ccc(OCC)c(F)c1",
    "IC50 [nM]": 1.3
  },
  {
    "COMPOUND": "CCCN(CCN1C[C@H](c2ccc3c(c2)OCO3)[C@@H](C(=O)O)[C@@H]1c1ccc(OC)c(F)c1)S(=O)(=O)CCCCl (stereo in doubt; 15d)",
    "IC50 [nM]": 0.094
  }
]

(P) CCCN(CCN1C[C@H](c2ccc3c(c2)OCO3)[C@@H](C(=O)O)[C@@H]1c1ccc(OC)c(F)c1)S(=O)(=O)Cc1ccccc1
(Q) CCCCCS(=O)(=O)N(CCC)CCN1C[C@H](c2ccc3c(c2)OCO3)[C@@H](C(=O)O)[C@@H]1c1ccc(OC)cc1
(R) CCCN(CCN1C[C@H](c2ccc3c(c2)OCO3)[C@@H](C(=O)O)[C@@H]1c1ccc(OC)cc1)S(=O)(=O)c1ccccc1
(S) CCCCCS(=O)(=O)N(CCC)CCN1C[C@H](c2ccc3c(c2)OCO3)[C@@H](C(=O)O)[C@@H]1c1ccc(OCCC)cc1
Request: Please produce an ascending ranking of these compounds based on IC50. List the labels according to the requested ordering.
Result: Q, R, P, S
(Q: 0.57 nM, R: 1.4 nM, P: 2.7 nM, S: 48 nM)

(A) CCCCCS(=O)(=O)N(CCC)CCN1C[C@H](c2ccc3c(c2)OCO3)[C@@H](C(=O)O)[C@@H]1c1ccc2c(c1)OCCO2
(B) CCCS(=O)(=O)N(CCN1C[C@H](c2ccc3c(c2)OCO3)[C@@H](C(=O)O)[C@@H]1c1ccc(OC)cc1)CC(C)C
Request: When their IC50 values are compared, which is larger, A or B ? Provide the label of your selected option as the answer.
Result: B
(B: 8.1 nM, A: 0.66 nM)

(A) CCCN(CCN1C[C@H](c2ccc3c(c2)OCO3)[C@@H](C(=O)O)[C@@H]1c1ccc(OC)cc1)S(=O)(=O)CCCCl
(B) CCCN(CCN1C[C@H](c2ccc3c(c2)OCO3)[C@@H](C(=O)O)[C@@H]1c1ccc(OC)c(F)c1)S(=O)(=O)CC(C)C
Request: When the recorded IC50 values are compared, which is smaller: that of A or that of B ? Provide the label of your selected option as the answer.
Result: B
(B: 0.21 nM, A: 2 nM)
